Assay: VP16 transactivation reporter inhibitors, counter-screen for LRH-1 inverse agonist project, cell-based, luminescence, high throughput (AID 651615)
Settings: Gal4-VP16 luciferase reporter cells, at 3.6 µM, stronger effect = higher value
Threshold rule: inhibition greater than or equal to 10% is Y; below that, N.

Task item: For this compound, is measured inhibition 10% or higher? "CN(C)c1ccc(C(=O)OCC(=O)Nc2ccc(N3CCOCC3)cc2)cc1"
Reply: N

Task item: Does the reported inhibition for "COc1ccc2cc3cc(C(=O)Nc4cc(OC)c(OC)c(OC)c4)oc3nc2c1" fall at or above the 10% mark?
Reply: Y

Task item: Does inhibition meet or surpass 10% for "CCOC(=O)c1cc(C#N)c(N2CCN(C(=O)c3cccc(C(F)(F)F)c3)CC2)nc1C(F)(F)F" ?
Reply: Y

Task item: # bool: inhibition of "CCOCC(=O)Nc1ccc(S(=O)(=O)NCCc2ccccc2)cc1" >= 10%
Reply: Y

Task item: Threshold query (inhibition >= 10%) on "O=C(c1cccc(Cl)c1)N1CCCC(c2ccc(Cl)cc2)=N1"
Reply: N

Task item: Determine whether measured inhibition meets or exceeds 10% for "O=C(NCc1ccccc1)c1cccc(NC(=O)c2ccco2)c1"
Reply: Y

Task item: Is inhibition for "CC(=O)N(/N=C/c1ccc([N+](=O)[O-])o1)c1nc2ccccc2c(=O)n1-c1ccccc1" at or above 10%?
Reply: N

Task item: inhibition >= 10% for "Cn1cccc1C(=O)OCC(=O)NCCCc1ccccc1" ?
Reply: N

Task item: Threshold query (inhibition >= 10%) on "COc1cc(C=CC(=O)c2cc(OC)c(OC)c(OC)c2)cc(OC)c1OC"
Reply: Y

Task item: Check this compound for inhibition at or above 10%: "COc1ccc(CCNc2ncnc3sc(C)cc23)cc1OC"
Reply: Y

Task item: Is inhibition for COc1ccc2c(c1OC)C(=O)N1c3ccccc3C(=O)N(c3ccccc3F)C21 (configuration not stated) at or above 10%?
Reply: Y

Task item: Determine whether measured inhibition meets or exceeds 10% for "COc1ccc(S(=O)(=O)Nc2ccc(CC#N)cc2)cc1"
Reply: N

Task item: For this compound, is measured inhibition 10% or higher? "CC(C)(C)C(=O)/C(=C/c1ccc(Cl)cc1)n1cncn1"
Reply: Y

Task item: Is inhibition for "CCn1c(=O)oc2cc(NC(=O)CCl)ccc21" at or above 10%?
Reply: N

Task item: inhibition >= 10% for "Cc1cc(C)c(S(=O)(=O)/N=C2\C=C(Nc3ccc(C(=O)O)cc3)C(=O)c3ccccc32)c(C)c1" ?
Reply: Y

Task item: Entry "CC1(C)CC(N2CCCC2)=CC(=[N+]2CCCCCC2)C1" : is its inhibition no less than 10%?
Reply: Y

Task item: Item "COc1cc(C(=O)Nc2ccccc2N2CCN(S(C)(=O)=O)CC2)cc(OC)c1OC" with inhibition of 10% or above?
Reply: N

Task item: Reported inhibition reaches at least 10% for CC(=O)NC(c1ccc(C(C)C)cc1)c1ccc2cccnc2c1O (configuration not stated) ?
Reply: Y

Task item: Exam item: decide whether the reported inhibition for "Cc1ccc(CNC(=O)CN2C(=O)NC3(CCCC3)C2=O)cc1" is at least 10%.
Reply: N

Task item: Does the compound "CCC(C)(C)c1ccc(OCCCC[n+]2ccccc2)c(C(C)(C)CC)c1" have recorded inhibition that is 10% or more?
Reply: Y

Task item: Is it the case that "CCCCCCCn1ccc(=N)cc1" has inhibition reaching or exceeding 10%?
Reply: Y

Task item: Could you please find out whether "CC(=O)Oc1ccc(-c2ccc(C(=O)Nc3cccc(S(=O)(=O)N4CCOCC4)c3)cc2)cc1" has inhibition that meets 10% or exceeds it?
Reply: Y
